- MEASUREMENT DESCRIPTION: qHTS of pediatric cancer cell lines to identify multiple opportunities for drug repurposing: Primary screen for SK-N-MC cells (AID 1347093); also: potency is read from the fitted curve at half-maximal effect
- MEASUREMENT CONDITIONS: SK-N-MC viability, CellTiter-Glo luminescence, 48 h; series mostly up to 46 µM
Results filed as inconclusive are left out. Calls of active or inactive are those of the source. Calls follow the shape of the dose curve; as a rule, active = well fitted cell-killing curve with a large enough effect; inconclusive = small, poorly fitted or top-dose-only effect; inactive = no such curve, though single readings can be large or run the other way.
METRIC: Potency

1. CN[C@H](CC(C)C)C(=O)N[C@H]1C(=O)N[C@@H](CC(N)=O)C(=O)N[C@@H]2C(=O)N[C@H]3C(=O)N[C@H](C(=O)N[C@H](C(=O)O)c4cc(O)cc(O)c4-c4cc3ccc4O)[C@H](O)c3ccc(c(Cl)c3)Oc3cc2cc(c3O[C@@H]2O[C@H](CO)[C@@H](O)[C@H](O)[C@@H]2O[C@H]2C[C@](C)(N)[C@H](O)[C@H](C)O2)Oc2ccc(cc2Cl)[C@H]1O; inactive
2. Nc1ccn(C2CO[C@H](CO)O2)c(=O)n1 (some centres undefined); inactive
3. O=C1NC(=O)[C@@H](c2cn3c4c(cccc24)CCC3)[C@H]1c1c[nH]c2ccccc12; 46.9 nM (active)
4. CC(=O)SCC(Cc1ccccc1)C(=O)NCC(=O)OCc1ccccc1 (centres undefined); 187 nM (active)
